System: PPARg DBDmut:RXRa IVT, anti-PPARg (DBD mutation: PPARg1 K132A/R137A, NR concentration 270 nM, RXRa partner concentration 90 nM)
procedure_details: PBM binding z-score (relative to random genomic background probes); higher = stronger binding; sequences stand for … in GC…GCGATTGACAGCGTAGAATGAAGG
measured_attribute: PBM binding z-score
Keep the answer to the number alone.

Reference set, count: 10
Record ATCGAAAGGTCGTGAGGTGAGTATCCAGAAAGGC , field PBM binding z-score: 1.2

Record GCTATTAGTTGAAAGGACAACCGAATGATTCTCG , field PBM binding z-score: 0.553

Record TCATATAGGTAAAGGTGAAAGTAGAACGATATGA , field PBM binding z-score: 2.33

Record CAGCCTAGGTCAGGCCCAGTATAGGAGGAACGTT , field PBM binding z-score: -0.686

Record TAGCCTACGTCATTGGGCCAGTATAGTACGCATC , field PBM binding z-score: -0.121

Record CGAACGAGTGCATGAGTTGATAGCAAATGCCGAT , field PBM binding z-score: -0.401

Record TTACCAAGGTGAGCTGAGGACGTTGATCCAACTC , field PBM binding z-score: -0.327

Record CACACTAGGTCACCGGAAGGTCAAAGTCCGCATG , field PBM binding z-score: 3.49

Record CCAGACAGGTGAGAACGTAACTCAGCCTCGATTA , field PBM binding z-score: 0.0295

Record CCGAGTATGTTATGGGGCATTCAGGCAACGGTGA , field PBM binding z-score: -0.0498

Further cases:
Record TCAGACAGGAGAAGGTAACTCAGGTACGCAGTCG , field PBM binding z-score: -0.44

Record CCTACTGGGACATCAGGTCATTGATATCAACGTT , field PBM binding z-score: 0.344

Record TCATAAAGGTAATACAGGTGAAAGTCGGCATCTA , field PBM binding z-score: 0.311

###

Tested on: PPARa:RXRa (NR concentration 270 nM, RXRa partner concentration 90 nM)
procedure_details: PBM binding z-score (relative to random genomic background probes); higher = stronger binding; sequences stand for … in GC…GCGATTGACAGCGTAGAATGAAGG
measured_attribute: PBM binding z-score
Keep the answer to the number alone.

Record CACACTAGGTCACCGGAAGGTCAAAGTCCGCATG , field PBM binding z-score: 6.24

Record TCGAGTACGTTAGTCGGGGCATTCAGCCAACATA , field PBM binding z-score: 0.167

Record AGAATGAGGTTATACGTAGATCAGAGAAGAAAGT , field PBM binding z-score: 3.2

Further cases:
Record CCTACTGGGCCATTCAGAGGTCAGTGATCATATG , field PBM binding z-score: 2.54

###

Tested on: PPARg DBDmut:RXRa IVT, anti-PPARg (DBD mutation: PPARg1 K132A/R137A, NR concentration 270 nM, RXRa partner concentration 90 nM)
procedure_details: PBM binding z-score (relative to random genomic background probes); higher = stronger binding; sequences stand for … in GC…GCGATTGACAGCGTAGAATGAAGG
measured_attribute: PBM binding z-score
Keep the answer to the number alone.

Reference set, count: 5
Record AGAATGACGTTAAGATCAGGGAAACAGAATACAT , field PBM binding z-score: -0.562

Record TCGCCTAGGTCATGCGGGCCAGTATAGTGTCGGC , field PBM binding z-score: -0.0945

Record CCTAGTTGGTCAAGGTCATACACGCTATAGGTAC , field PBM binding z-score: 0.777

Record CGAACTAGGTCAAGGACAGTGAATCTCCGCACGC , field PBM binding z-score: 4.79

Record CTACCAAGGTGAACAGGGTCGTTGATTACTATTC , field PBM binding z-score: 0.525

Further cases:
Record TAGGCTAGGTCAGATCGGGCCAGTATACGCTATA , field PBM binding z-score: -0.0594

Record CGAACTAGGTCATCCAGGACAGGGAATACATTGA , field PBM binding z-score: 3.98

Record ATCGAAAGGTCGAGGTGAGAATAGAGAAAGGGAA , field PBM binding z-score: 1.22

Record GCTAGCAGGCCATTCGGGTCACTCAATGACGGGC , field PBM binding z-score: -0.52

Record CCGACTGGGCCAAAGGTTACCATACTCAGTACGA , field PBM binding z-score: 0.219

Record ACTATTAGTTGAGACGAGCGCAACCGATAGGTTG , field PBM binding z-score: 0.343

Record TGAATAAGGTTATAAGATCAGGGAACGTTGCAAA , field PBM binding z-score: 1.27
